- systemTested: Histone-lysine N-methyltransferase EZH2 (Homo sapiens, UniProt Q15910)
Lab note: compare Kd with 0.07 s⁻¹, writing Fulfilled if less and Not fulfilled if equal or more.

Field: example entries. Status: answers known.
C=C(C)C(=O)N(CC)c1cc(-c2ccc(N3CCN(C(=O)c4cc(Cc5n[nH]c(=O)c6ccccc56)ccc4F)CC3)nc2)cc(C(=O)NCc2c(C)cc(C)[nH]c2=O)c1C : Fulfilled
CCC(=O)Nc1cc(-c2ccc(N3CCN(C(=O)c4cc(Cc5n[nH]c(=O)c6ccccc56)ccc4F)CC3)nc2)cc(C(=O)NCc2c(C)cc(C)[nH]c2=O)c1C : Not fulfilled

Threshold test, Kd < 0.07 s⁻¹: CCC(=O)N(CC)c1cc(-c2ccc(N3CCN(C(=O)c4cc(Cc5n[nH]c(=O)c6ccccc56)ccc4F)CC3)nc2)cc(C(=O)NCc2c(C)cc(C)[nH]c2=O)c1C
Fulfilled

Threshold test, Kd < 0.07 s⁻¹: Cc1cc(C)c(CNC(=O)c2cc(-c3ccc(N4CCN(C(=O)c5cc(Cc6n[nH]c(=O)c7ccccc67)ccc5F)CC4)nc3)cc(NC(=O)CC(C)C)c2C)c(=O)[nH]1
Not fulfilled

Threshold test, Kd < 0.07 s⁻¹: CC(=O)Nc1cc(-c2ccc(N3CCN(C(=O)c4cc(Cc5n[nH]c(=O)c6ccccc56)ccc4F)CC3)nc2)cc(C(=O)NCc2c(C)cc(C)[nH]c2=O)c1C
Fulfilled

###

Overview of reported IC50 across a group of compounds:
- Test system: MCF7
- assayName: cells
- Assay type: functional, cell-based
- assaySetup: Homo sapiens, MCF7, 72 h
- Description: Antiproliferative activity against human MCF7 cells assessed as cell viability after 72 hrs by MTT assay

Cc1cc(C)c(CNC(=O)c2cc(-c3ccc(N4CCN(C(=O)c5cc(Cc6n[nH]c(=O)c7ccccc67)ccc5F)CC4)nc3)ccc2C)c(=O)[nH]1 : > 50 µM
C=C(C)C(=O)N(CC)c1cc(-c2ccc(N3CCN(C(=O)c4cc(Cc5n[nH]c(=O)c6ccccc56)ccc4F)CC3)nc2)cc(C(=O)NCc2c(C)cc(C)[nH]c2=O)c1C : 21.2 µM
Cc1cc(C)c(CNC(=O)c2cc(-c3ccc(N4CCN(C(=O)c5cc(Cc6n[nH]c(=O)c7ccccc67)ccc5F)CC4)nc3)cc(C(F)(F)F)c2)c(=O)[nH]1 : > 50 µM
Cc1cc(C)c(CNC(=O)c2cc(-c3ccc(N4CCN(C(=O)c5cc(Cc6n[nH]c(=O)c7ccccc67)ccc5F)CC4)nc3)cc3c2cnn3C)c(=O)[nH]1 : > 50 µM
Cc1cc(C)c(CNC(=O)c2ccc(C)c(-c3ccc(N4CCN(C(=O)c5cc(Cc6n[nH]c(=O)c7ccccc67)ccc5F)CC4)nc3)c2)c(=O)[nH]1 : > 50 µM

Proceeding to the next compound to report its IC50.
Can you share its IC50? I mean this compound: CCN(c1cc(-c2ccc(N3CCN(C(=O)c4cc(Cc5n[nH]c(=O)c6ccccc56)ccc4F)CC3)nc2)cc(C(=O)NCc2c(C)cc(C)[nH]c2=O)c1C)C1CCOCC1
> 50 µM

###

Overview of reported pIC50 across a group of compounds:
- Tested on: MDA-MB-468
- assayName: cells
- Assay type: functional, cell-based
- assaySetup: Homo sapiens, MDA-MB-468, 72 h
- Description: Antiproliferative activity against human MDA-MB-468 cells assessed as cell viability after 72 hrs by MTT assay
// pIC50 here means minus log10 of the molar concentration (mol/L)

Consider the following illustrative entries.
COc1cc(C)c(C(=O)NCc2c(C)cc(C)[nH]c2=O)cc1-c1ccc(N2CCN(C(=O)c3cc(Cc4n[nH]c(=O)c5ccccc45)ccc3F)CC2)nc1 : 2.71
Cc1cc(C)c(CNC(=O)c2cc(-c3ccc(N4CCN(C(=O)c5cc(Cc6n[nH]c(=O)c7ccccc67)ccc5F)CC4)nc3)cc(NC(=O)CCC(=O)N(C)C)c2C)c(=O)[nH]1 : 5.08

Proceeding to the next compound to report its pIC50.
Can you share its pIC50? I mean this compound: CCC(=O)N(CC)c1cc(-c2ccc(N3CCN(C(=O)c4cc(Cc5n[nH]c(=O)c6ccccc56)ccc4F)CC3)nc2)cc(C(=O)NCc2c(C)cc(C)[nH]c2=O)c1C
5.68

###

- Tested on: MCF7
- assayName: cells
- Assay type: functional, cell-based
- assaySetup: Homo sapiens, MCF7, 72 h
Lab note: compare IC50 with 30 µM, writing True if less and False if equal or more.

Threshold test, IC50 < 30 µM: Cc1cc(C)c(CNC(=O)c2cc(-c3ccc(N4CCN(C(=O)c5cc(Cc6n[nH]c(=O)c7ccccc67)ccc5F)CC4)nc3)cc(NC(=O)CC(C)C)c2C)c(=O)[nH]1
True

Threshold test, IC50 < 30 µM: Cc1cc(C)c(CNC(=O)c2cccc(-c3ccc(N4CCN(C(=O)c5cc(Cc6n[nH]c(=O)c7ccccc67)ccc5F)CC4)nc3)c2)c(=O)[nH]1
False

Threshold test, IC50 < 30 µM: Cc1cc(C)c(CNC(=O)c2cc(-c3ccc(N4CCN(C(=O)c5cc(Cc6n[nH]c(=O)c7ccccc67)ccc5F)CC4)nc3)cc([N+](=O)[O-])c2)c(=O)[nH]1
False

Threshold test, IC50 < 30 µM: CC(=O)Nc1cc(-c2ccc(N3CCN(C(=O)c4cc(Cc5n[nH]c(=O)c6ccccc56)ccc4F)CC3)nc2)cc(C(=O)NCc2c(C)cc(C)[nH]c2=O)c1C
True

###

- systemTested: UniProt:Q15910
- assaySetup: time 3.0 hrs
- Sequence (Q15910 whole entry, looked up): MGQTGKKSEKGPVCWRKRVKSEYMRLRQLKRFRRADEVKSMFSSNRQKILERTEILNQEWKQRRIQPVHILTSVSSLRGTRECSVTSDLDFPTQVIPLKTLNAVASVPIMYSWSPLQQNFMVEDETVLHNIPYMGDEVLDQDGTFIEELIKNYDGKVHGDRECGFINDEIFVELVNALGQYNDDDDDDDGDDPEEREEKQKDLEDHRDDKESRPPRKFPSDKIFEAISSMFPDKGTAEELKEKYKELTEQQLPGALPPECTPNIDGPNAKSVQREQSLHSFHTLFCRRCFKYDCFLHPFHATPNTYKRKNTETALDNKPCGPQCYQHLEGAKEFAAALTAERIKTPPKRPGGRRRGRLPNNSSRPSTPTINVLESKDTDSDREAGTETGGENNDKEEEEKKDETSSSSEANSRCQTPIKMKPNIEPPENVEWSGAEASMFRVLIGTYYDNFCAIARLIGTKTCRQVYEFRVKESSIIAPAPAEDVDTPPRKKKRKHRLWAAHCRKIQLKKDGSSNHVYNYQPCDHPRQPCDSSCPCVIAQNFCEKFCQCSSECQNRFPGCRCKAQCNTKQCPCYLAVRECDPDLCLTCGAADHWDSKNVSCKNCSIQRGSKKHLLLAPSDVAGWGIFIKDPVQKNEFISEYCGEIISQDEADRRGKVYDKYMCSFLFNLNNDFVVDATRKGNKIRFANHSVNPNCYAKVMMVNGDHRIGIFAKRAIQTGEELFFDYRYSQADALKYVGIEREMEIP
Overview of reported Ka across a group of molecules:

CCC(=O)Nc1cc(-c2ccc(N3CCN(C(=O)c4cc(Cc5n[nH]c(=O)c6ccccc56)ccc4F)CC3)nc2)cc(C(=O)NCc2c(C)cc(C)[nH]c2=O)c1C : 4.98 10^6/M/s
CCC(=O)N(CC)c1cc(-c2ccc(N3CCN(C(=O)c4cc(Cc5n[nH]c(=O)c6ccccc56)ccc4F)CC3)nc2)cc(C(=O)NCc2c(C)cc(C)[nH]c2=O)c1C : 6.39 10^5/M/s
C=C(C)C(=O)N(CC)c1cc(-c2ccc(N3CCN(C(=O)c4cc(Cc5n[nH]c(=O)c6ccccc56)ccc4F)CC3)nc2)cc(C(=O)NCc2c(C)cc(C)[nH]c2=O)c1C : 1.11 10^6/M/s

Can you share its Ka? I mean this molecule: Cc1cc(C)c(CNC(=O)c2cc(-c3ccc(N4CCN(C(=O)c5cc(Cc6n[nH]c(=O)c7ccccc67)ccc5F)CC4)nc3)cc(NC(=O)CC(C)C)c2C)c(=O)[nH]1
4.54 10^6/M/s

Can you share its Ka? I mean this molecule: CC[C@H](C)n1nc(C)c2c(C(=O)NCc3c(C)cc(C)[nH]c3=O)cc(-c3ccc(N4CCNCC4)nc3)cc21
3.23 10^6/M/s

Can you share its Ka? I mean this molecule: CC(=O)Nc1cc(-c2ccc(N3CCN(C(=O)c4cc(Cc5n[nH]c(=O)c6ccccc56)ccc4F)CC3)nc2)cc(C(=O)NCc2c(C)cc(C)[nH]c2=O)c1C
1.09 10^6/M/s

###

- Tested on: MDA-MB-468
- assayName: cells
- Format: functional, cell-based
- assaySetup: Homo sapiens, MDA-MB-468, 72 h
resultType: pIC50
// pIC50 here means minus log10 of the molar concentration (mol/L)

CCN(C(C)=O)c1cc(-c2ccc(N3CCN(C(=O)c4cc(Cc5n[nH]c(=O)c6ccccc56)ccc4F)CC3)nc2)cc(C(=O)NCc2c(C)cc(C)[nH]c2=O)c1C : 5.02
C=C(C)C(=O)Nc1cc(-c2ccc(N3CCN(C(=O)c4cc(Cc5n[nH]c(=O)c6ccccc56)ccc4F)CC3)nc2)cc(C(=O)NCc2c(C)cc(C)[nH]c2=O)c1C : 5.66
CCCC(=O)Nc1cc(-c2ccc(N3CCN(C(=O)c4cc(Cc5n[nH]c(=O)c6ccccc56)ccc4F)CC3)nc2)cc(C(=O)NCc2c(C)cc(C)[nH]c2=O)c1C : 5.41
Cc1cc(C)c(CNC(=O)c2cc(-c3ccc(N4CCN(C(=O)c5cc(Cc6n[nH]c(=O)c7ccccc67)ccc5F)CC4)nc3)cc(NC(C)C)c2C)c(=O)[nH]1 : 4.78
C=C(C)C(=O)N(CC)c1cc(-c2ccc(N3CCN(C(=O)c4cc(Cc5n[nH]c(=O)c6ccccc56)ccc4F)CC3)nc2)cc(C(=O)NCc2c(C)cc(C)[nH]c2=O)c1C : 5.56

Can you share its pIC50? I mean this molecule: CCC(=O)Nc1cc(-c2ccc(N3CCN(C(=O)c4cc(Cc5n[nH]c(=O)c6ccccc56)ccc4F)CC3)nc2)cc(C(=O)NCc2c(C)cc(C)[nH]c2=O)c1C
6.48

Can you share its pIC50? I mean this molecule: CC(=O)Nc1cc(-c2ccc(N3CCN(C(=O)c4cc(Cc5n[nH]c(=O)c6ccccc56)ccc4F)CC3)nc2)cc(C(=O)NCc2c(C)cc(C)[nH]c2=O)c1C
6.39

Can you share its pIC50? I mean this molecule: Cc1cc(C)c(CNC(=O)c2ccc(C)c(-c3ccc(N4CCN(C(=O)c5cc(Cc6n[nH]c(=O)c7ccccc67)ccc5F)CC4)nc3)c2)c(=O)[nH]1
4.54

Can you share its pIC50? I mean this molecule: CNc1cc(-c2ccc(N3CCN(C(=O)c4cc(Cc5n[nH]c(=O)c6ccccc56)ccc4F)CC3)nc2)cc(C(=O)NCc2c(C)cc(C)[nH]c2=O)c1C
4.76
